Recorded melting point by entry

As a guide, the following entries are already answered.
[
  {
    "compound": "Cl.OC(COc1ccc(Br)cc1)CN1CCCCC1 (stereo not shown)",
    "melting point": "178.1 to 178.6 °C"
  },
  {
    "compound": "Cl.OC(COc1ccc(Br)cc1)CN1CCOCC1 (stereo not shown)",
    "melting point": "172.1 to 172.7 °C"
  }
]

Sample COc1ccc(OCC(O)CN2CCCCC2)cc1.Cl (stereo not shown) ; melting point observed: 169.3 to 169.9 °C

Sample CC(C)(C)c1ccc(OCC(O)CN2CCCCC2)cc1.Cl (stereo not shown) ; melting point observed: 201.7 to 202.2 °C

From: paper PMC9706920
